target-of-assay: Integrin alpha-4 (Homo sapiens)
Sequence (P13612 whole entry): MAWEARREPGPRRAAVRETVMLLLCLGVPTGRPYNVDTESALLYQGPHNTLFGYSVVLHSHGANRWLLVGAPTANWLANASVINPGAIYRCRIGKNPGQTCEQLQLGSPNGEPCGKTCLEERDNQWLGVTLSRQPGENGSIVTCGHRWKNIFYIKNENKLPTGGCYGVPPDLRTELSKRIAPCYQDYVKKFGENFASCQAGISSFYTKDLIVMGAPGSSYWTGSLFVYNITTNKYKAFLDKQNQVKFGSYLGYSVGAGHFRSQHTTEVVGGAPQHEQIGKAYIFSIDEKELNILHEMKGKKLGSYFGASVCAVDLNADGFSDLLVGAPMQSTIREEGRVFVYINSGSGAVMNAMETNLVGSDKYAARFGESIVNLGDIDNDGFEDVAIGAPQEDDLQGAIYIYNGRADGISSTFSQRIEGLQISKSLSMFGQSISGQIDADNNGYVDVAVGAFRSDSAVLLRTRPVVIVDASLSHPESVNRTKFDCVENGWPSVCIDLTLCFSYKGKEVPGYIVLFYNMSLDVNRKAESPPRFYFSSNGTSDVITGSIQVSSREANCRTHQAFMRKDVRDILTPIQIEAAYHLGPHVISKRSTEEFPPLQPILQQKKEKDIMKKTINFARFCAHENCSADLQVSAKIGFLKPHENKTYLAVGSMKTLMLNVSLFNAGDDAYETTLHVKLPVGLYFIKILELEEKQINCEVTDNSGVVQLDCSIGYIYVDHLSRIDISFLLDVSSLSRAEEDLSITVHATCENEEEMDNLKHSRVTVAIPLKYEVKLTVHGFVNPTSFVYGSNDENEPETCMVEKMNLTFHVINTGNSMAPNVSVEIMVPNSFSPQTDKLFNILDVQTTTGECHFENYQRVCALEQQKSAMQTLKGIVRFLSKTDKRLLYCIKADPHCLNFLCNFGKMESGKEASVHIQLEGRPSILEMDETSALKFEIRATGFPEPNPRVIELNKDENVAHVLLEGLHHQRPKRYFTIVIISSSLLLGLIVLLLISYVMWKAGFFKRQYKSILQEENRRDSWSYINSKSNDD
assay-details: Inhibition of VLA-4 binding to recombinant human VCAM using Solid phase assay
// IC50 lookup, one value per entry
Express it in nM; write the number only.

// worked examples, IC50 included
- smiles-record: "N[C@@H](Cc1ccc(O)cc1)C(=O)N[C@H]1CSSC[C@@H](C(=O)O)NC(=O)C2(CCCC2)CNC1=O"
  recorded-endpoint: "IC50"
  meas-value: 5
- smiles-record: "CC(=O)N[C@@H](Cc1ccc(O)cc1)C(=O)N[C@H]1CSSC[C@@H](C(=O)O)NC(=O)C2(CCCC2)CCNC1=O"
  recorded-endpoint: "IC50"
  meas-value: 0.7
- smiles-record: "N[C@@H](Cc1ccc(O)cc1)C(=O)N[C@H]1CSSC[C@@H](C(=O)O)NC(=O)C2(CCCC2)CCCNC1=O"
  recorded-endpoint: "IC50"
  meas-value: 19

Task: State the recorded IC50 for this entry: CCC1(CC)CCNC(=O)[C@@H](NC(=O)[C@@H](N)Cc2ccc(O)cc2)CSSC[C@@H](C(=O)O)NC1=O
Output: 3.9

Task: State the recorded IC50 for this entry: CC1(C)CCNC(=O)[C@@H](NC(=O)[C@@H](N)Cc2ccc(O)cc2)CSSC[C@@H](C(=O)O)NC1=O
Output: 112
